protocol_summary: plasma pharmacokinetics after a single i.p. dose
Type: in vivo
condition_notes: male, C57BL/6 J, ip, 300 μM/kg i.p., mouse, read-out: t½, plasma (converted)
experimental_readout: half-life (h)
Just the number please, in h, no unit attached.

q: Endpoint output: half-life of `O=C(O)c1ccc2c3c1cccc3c(=O)n1c3ccccc3nc21` . Value?
a: 7.93

====

protocol_summary: plasma pharmacokinetics after a single i.p. dose
Format: in vivo
condition_notes: male, C57BL/6 J, ip, 300 μM/kg i.p., mouse
Experimental: Plasma samples were prepared by mixing 5.0 μl of plasma with 45 μl of ice-cold MeOH followed by centrifugation at 15,000 × g for 15 min to remove protein. The resulting supernates were transferred into autosampler vials for analysis. […] The concentration of STO-609 was calculated based on standard curves in the corresponding matrices. The pharmacokinetic parameters were calculated using non-compartmental analysis with PKSolver[20]. […]
experimental_readout: CL/F (mL/min/kg)
The answer is to be given in mL/min/kg; state only the numeric part.

q: Record request: CL/F value, item O=C(O)c1ccc2c3c1cccc3c(=O)n1c3ccccc3nc21 [STO-609^S]
a: 1.5

====

protocol_summary: tissue distribution after a single i.p. dose
Format: in vivo
condition_notes: male, C57BL/6 J, testis, ip; 30 μM/kg i.p., mouse; read-out: t½, testis (converted)
experimental_readout: half-life

q: Item O=C(O)c1ccc2c3c1cccc3c(=O)n1c3ccccc3nc21 [STO-609^S] has what recorded half-life?
a: 3.95 h

====

protocol_summary: tissue distribution after a single i.p. dose
Assay type: in vivo
condition_notes: male, C57BL/6 J, mouse, testis, ip, 30 μM/kg, 30 μM/kg i.p., read-out: Cmax, testis
experimental_readout: Cmax (µM)
All answers are understood in µM, so give the number only.

q: Bench note: what Cmax did `O=C(O)c1ccc2c3c1cccc3c(=O)n1c3ccccc3nc21` show?
a: 0.209

====

protocol_summary: plasma pharmacokinetics after a single i.p. dose
Type: in vivo
condition_notes: male, C57BL/6 J, ip, 30 μM/kg i.p., mouse, read-out: AUC 0-24, plasma
experimental_readout: AUC(0-t) (µM·h)
Report as a plain number; the unit µM·h is understood.

q: Tell me the measured AUC(0-t) of `O=C(O)c1ccc2c3c1cccc3c(=O)n1c3ccccc3nc21` , please.
a: 245

====

protocol_summary: plasma pharmacokinetics after a single i.p. dose
Assay type: in vivo
condition_notes: male, C57BL/6 J, ip, 30 μM/kg i.p., mouse
experimental_readout: Cmax (µM)
Please respond with the number in µM and leave the unit unwritten.

q: Which Cmax is listed for `O=C(O)c1ccc2c3c1cccc3c(=O)n1c3ccccc3nc21` ?
a: 32.6

====

protocol_summary: tissue distribution after a single i.p. dose
Format: in vivo
condition_notes: male, C57BL/6 J, brain, ip; 30 μM/kg i.p., mouse; read-out: t½, brain (converted)
experimental_readout: half-life
Put your answer as a value accompanied by its unit after it.

q: // half-life lookup, key: O=C(O)c1ccc2c3c1cccc3c(=O)n1c3ccccc3nc21 [STO-609^S]
a: 5.21 h

====

protocol_summary: plasma pharmacokinetics after a single i.p. dose
Assay type: in vivo
condition_notes: male, C57BL/6 J, ip, 30 μM/kg i.p., mouse, read-out: t½, plasma (converted)
experimental_readout: half-life

q: Look up half-life for this compound: `O=C(O)c1ccc2c3c1cccc3c(=O)n1c3ccccc3nc21`
a: 12.2 h

====

protocol_summary: tissue distribution after a single i.p. dose
Assay type: in vivo
condition_notes: C57BL/6J, mouse, intestine, ip, 30 μM/kg, 30 μM/kg i.p., read-out: Cmax, intestine (text)
Method: Plasma samples were prepared by mixing 5.0 μl of plasma with 45 μl of ice-cold MeOH followed by centrifugation at 15,000 × g for 15 min to remove protein. The resulting supernates were transferred into autosampler vials for analysis. […] The concentration of STO-609 was calculated based on standard curves in the corresponding matrices. The pharmacokinetic parameters were calculated using non-compartmental analysis with PKSolver[20]. […]
experimental_readout: Cmax

q: What value of Cmax has been reported for the following compound? `O=C(O)c1ccc2c3c1cccc3c(=O)n1c3ccccc3nc21`
a: ~500 nM

====

protocol_summary: tissue distribution after a single i.p. dose
Format: in vivo
condition_notes: C57BL/6J, spleen, ip; 30 μM/kg i.p., mouse; read-out: t½, spleen (converted)
experimental_readout: half-life (h)
Number in h, nothing else.

q: Given `O=C(O)c1ccc2c3c1cccc3c(=O)n1c3ccccc3nc21` , state its recorded half-life.
a: 4

====

protocol_summary: tissue distribution after a single i.p. dose
Assay type: in vivo
condition_notes: C57BL/6J, mouse, pancreas, ip, 30 μM/kg, 30 μM/kg i.p., read-out: Cmax, pancreas
experimental_readout: Cmax (nM)
Numbers only here, please. The scale is nM.

q: # Cmax lookup, item `O=C(O)c1ccc2c3c1cccc3c(=O)n1c3ccccc3nc21`
a: 329

====

protocol_summary: plasma pharmacokinetics after a single i.p. dose
Type: in vivo
condition_notes: male, C57BL/6 J, ip, 300 μM/kg i.p., mouse, read-out: AUC 0-24, plasma
experimental_readout: AUC(0-t) (µM·h)
Output spec: scalar in µM·h, unitless text.

q: Could you tell me which AUC(0-t) is on file for O=C(O)c1ccc2c3c1cccc3c(=O)n1c3ccccc3nc21 [STO-609^S] ?
a: 2930

====

protocol_summary: plasma pharmacokinetics after a single i.p. dose
Format: in vivo
condition_notes: male, C57BL/6 J, ip, 300 μM/kg i.p., mouse
experimental_readout: Cmax (µM)
Use µM as the unit, but write only the number.

q: So what does the record say about Cmax for O=C(O)c1ccc2c3c1cccc3c(=O)n1c3ccccc3nc21 [STO-609^S] ?
a: 473

====

protocol_summary: tissue distribution after a single i.p. dose
Assay type: in vivo
condition_notes: male, C57BL/6 J, mouse, white adipose tissue, ip, 30 μM/kg, 30 μM/kg i.p., read-out: Cmax, white adipose tissue
Procedure: Plasma samples were prepared by mixing 5.0 μl of plasma with 45 μl of ice-cold MeOH followed by centrifugation at 15,000 × g for 15 min to remove protein. The resulting supernates were transferred into autosampler vials for analysis. […] The concentration of STO-609 was calculated based on standard curves in the corresponding matrices. The pharmacokinetic parameters were calculated using non-compartmental analysis with PKSolver[20]. […]
experimental_readout: Cmax (nM)
Report as a plain number; the unit nM is understood.

q: // lookup Cmax for O=C(O)c1ccc2c3c1cccc3c(=O)n1c3ccccc3nc21 [STO-609^S]
a: 137

====

protocol_summary: tissue distribution after a single i.p. dose
Format: in vivo
condition_notes: male, C57BL/6 J, mouse, spleen, ip, 30 μM/kg, 30 μM/kg i.p., read-out: Cmax, spleen
experimental_readout: Cmax (nM)
Entry rule: numbers only, all in nM.

q: I would be grateful if you could share the reported Cmax for `O=C(O)c1ccc2c3c1cccc3c(=O)n1c3ccccc3nc21` .
a: 341

====

protocol_summary: tissue distribution after a single i.p. dose
Type: in vivo
condition_notes: male, C57BL/6 J, gastrocnemius, ip; 30 μM/kg i.p., mouse; read-out: t½, gastrocnemius (converted)
experimental_readout: half-life (h)
Write the answer as a number in h, unit excluded.

q: If you can, please state the reported half-life value of O=C(O)c1ccc2c3c1cccc3c(=O)n1c3ccccc3nc21 [STO-609^S] .
a: 5.83

====

protocol_summary: plasma pharmacokinetics after a single i.p. dose
Assay type: in vivo
condition_notes: male, C57BL/6 J, ip, 30 and 300 μM/kg i.p., mouse, read-out: t½, plasma, over the doses
Experimental: Plasma samples were prepared by mixing 5.0 μl of plasma with 45 μl of ice-cold MeOH followed by centrifugation at 15,000 × g for 15 min to remove protein. The resulting supernates were transferred into autosampler vials for analysis. […] The concentration of STO-609 was calculated based on standard curves in the corresponding matrices. The pharmacokinetic parameters were calculated using non-compartmental analysis with PKSolver[20]. […]
experimental_readout: half-life

q: Would you mind telling me what half-life value was observed for `O=C(O)c1ccc2c3c1cccc3c(=O)n1c3ccccc3nc21` ?
a: 480 to 720 min

====

protocol_summary: tissue distribution after a single i.p. dose
Format: in vivo
condition_notes: male, C57BL/6 J, mouse, heart, ip, 30 μM/kg, 30 μM/kg i.p., read-out: Cmax, heart
experimental_readout: Cmax (nM)
Reply with just the number (in nM).

q: # lookup: Cmax of O=C(O)c1ccc2c3c1cccc3c(=O)n1c3ccccc3nc21 [STO-609^S]
a: 293
